- Test system: MALME-3M melanoma
- protocolText: NCI tumour cell line growth inhibition, 48 h
measurementName: TGI (µM)
Answers are plain numbers, in µM.

Examples with their reported TGI follow.
C=C1c2nc3ccccc3n2C=C(c2ccccc2)N1c1ccc(OC)cc1 | 44.8
COc1cc(C2S/C(=C/c3ccccc3)C(=O)N2c2ccc(Cl)cc2)cc(OC)c1OC (stereo not given) | 87.2

Batch request: TGI per item, same order as input.
1. CSC1(SC)CCCCCCCCCCC1
2. CCNC(=O)Oc1ccc(/C(=C(\C)c2ccc(Cl)cc2)c2ccc(OCCN3CCCCC3)cc2)cc1

A.
[70.9, 3.9]

###

- System: UO-31 renal
- protocolText: NCI tumour cell line growth inhibition, 48 h
I'd appreciate it if you could supply TGI values for the items below.
One number for each entry, in µM.

Return reported TGI values for all items listed beneath this line.
1. CN1C(=O)C23CC4=CC=CC(O)C4N2C(=O)C1(CO)SS3 (stereo not given)
2. O=C(Nc1ccccc1)N1N=C(c2ccccc2)C1c1ccccc1 (stereo not given)

A.
2.03
69.6

###

Kindly state TGI for each of the entries shown.
- Test system: HCT-15 colon
- protocolText: NCI tumour cell line growth inhibition, 48 h

// known answers, use as guide
COC1C(CO)OC(n2c3ccccc3c3c4c(c5c6ccccc6[nH]c5c32)C(=O)NC4=O)C(O)C1OC(=O)C(N)CCCCN (centres undefined) | > 39.5 µM
Cc1[nH]c(=O)nc(N/N=C/c2ccc(O)cc2)c1C(=O)Nc1ccc(Cl)cc1 | > 100 µM
O=C(CCN1CCCCC1CO)Nc1ccc2c(c1)C(=O)c1ccc(NC(=O)CCN3CCCCC3CO)cc1C2=O (centres undefined) | 54 µM
COC(=O)C1CCC(=NC2c3ccccc3-c3ccccc32)N1 (centres undefined) | > 100 µM
CN1C(=O)C23CC4=CC=CC(O)C4N2C(=O)C1(CO)SS3 (centres undefined) | 0.419 µM

// input: 4 molecules below; output: TGI for each
1. C[C@@H](C[C@@H](O)[C@H](O)C(C)(C)O)[C@H]1CC=C2[C@]3(C)[C@H](O)C[C@H]4C(C)(C)[C@H](O)CC[C@]4(C)[C@H]3CC[C@@]21C
2. O=c1[nH]c(-c2ccccn2)nc2sc3c(c12)CCCCCC3
3. COc1cc(OC)c(/C=C/S(=O)(=O)Cc2ccc(OC)c(NCC(=O)O)c2)c(OC)c1
4. CN(C)c1ccc(Sc2ccc3nc(N)nc(N)c3c2)cc1

A.
1: 36.1 µM; 2: > 100 µM; 3: > 100 µM; 4: 14.2 µM

###

- System: MCF7 breast
- protocolText: NCI tumour cell line growth inhibition, 48 h
What TGI was measured for each of the following?

Past entries and their recorded results:
COc1cc(/C=C2\C[C@H]3[C@@H]4CC=C5C[C@@H](N6CCCC6)CC[C@]5(C)[C@H]4CC[C@]3(C)[C@H]2OC(C)=O)cc(OC)c1OC | 29.8 µM
COc1ccc(C[C@H]2COC(=O)[C@@H]2Cc2cc(OC)c(OC)c(OC)c2)cc1OC | > 100 µM
C=CC1(CCC(Br)C(C)(C)Cl)CO1 (centres undefined) | > 10 µM

Lab note: each molecule below needs its TGI filled in.
1. CC(C)[Si]1(C(C)C)OCC2OC(n3cnc4c(N)ncnc43)C(N)C2O[Si](C(C)C)(C(C)C)O1 (centres undefined)
2. COc1cc(O)c2c(c1)C(O)C(O)CC1OC1C(=O)/C=C/CC(C)OC2=O (centres undefined)
3. COc1cc(C2c3cc4c(cc3[C@@H](Nc3cccc(O)c3)C3COC(=O)[C@H]23)OCO4)cc(OC)c1O (some centres undefined)
4. CN(Cc1nc2c(N)nc(N)nc2nc1N)c1ccc(C(=O)NC(CCC(=O)O)C(=O)O)cc1 (centres undefined)
5. C[C@H](NC(=O)CCC(F)(F)F)C(=O)N[C@@H]1C(=O)N(CCO)c2ncccc2-c2ccccc21
6. CN1CCN(C(=S)SCN2C(=O)c3ccccc3S2(=O)=O)CC1
7. COC1(OC)N=C(N)C2(C#N)/C(=N/N(C)C)CC(C)C12C#N (centres undefined)
8. CSc1s[s+]c(SC)c1-c1ccccc1

A.
1: 8.56 µM; 2: 16.3 µM; 3: 28.4 µM; 4: > 100 µM; 5: > 100 µM; 6: > 100 µM; 7: > 100 µM; 8: 33.7 µM

Could I get TGI for every one of these entries?
1. CSC1(SC)CCCCCCCCCCC1
2. Cc1ccc(S(=O)(=O)NC(=O)NS(=O)(=O)O)cc1
3. C=C(C)[C@]12CC(C)C34OC(/C=C\C=C\CCCCCCCCC)(O[C@@H]1[C@@H]3[C@@H]1O[C@]1(CO)[C@@H](O)[C@]1(O)C(=O)C(C)=C[C@@H]41)O2 (some centres undefined)
4. OCc1ccccc1OC1OC(CO)C(O)C(O)C1O (centres undefined)

A.
["38.1 µM", "> 100 µM", "23.4 µM", "> 100 µM"]

Could I get TGI for every one of these entries?
1. COC(=O)C1(Cc2ccccc2)Cc2ccccc2C1=O (centres undefined)
2. CCCCCCCCCCCCCCCCCC1=NC(C)(C)CN1CCO
3. C=C(CC1(CC(=C)c2ccc(C(=O)O)cc2)C(=O)N(C)C(=O)N(C)C1=O)c1ccc(C(=O)O)cc1
4. Cc1nc(C(N)=S)sc1C(=O)CC(=O)C(=O)Nc1cccc(Cl)c1C
5. O=C(O)c1ccccc1-c1ccccc1C(=O)c1ccccc1
6. COc1ccc(N(Cc2cc(OC)c(OC)c(OC)c2)C2OC(=O)c3ccccc32)cc1 (centres undefined)

A.
1: > 100 µM; 2: 3.32 µM; 3: > 100 µM; 4: > 100 µM; 5: > 100 µM; 6: > 100 µM
